B1: Osa-1-4 twister ribozyme (parent)
chain: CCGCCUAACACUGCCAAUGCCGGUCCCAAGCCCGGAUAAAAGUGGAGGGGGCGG

# Variants of: B1
# ASSAY PROCEDURE: self-cleavage, relative activity (ratio to wild type); higher = more cleavage; co-transcriptional
Item-by-item account of self-cleavage
REPORTED ENDPOINT: self-cleavage

{"VARIANT NAME": "G44U U43G", "REPORTED ENDPOINT": "self-cleavage", "NUMBER": 0.11}
{"VARIANT NAME": "C27A G48U", "REPORTED ENDPOINT": "self-cleavage", "NUMBER": 0.04}
{"VARIANT NAME": "G42C G53U", "REPORTED ENDPOINT": "self-cleavage", "NUMBER": 0.08}
{"VARIANT NAME": "A29G U18A", "REPORTED ENDPOINT": "self-cleavage", "NUMBER": 0.23}
{"VARIANT NAME": "A17C A39U", "REPORTED ENDPOINT": "self-cleavage", "NUMBER": 0.73}
{"VARIANT NAME": "C21A G45A", "REPORTED ENDPOINT": "self-cleavage", "NUMBER": 0.05}
{"VARIANT NAME": "C9A G53U", "REPORTED ENDPOINT": "self-cleavage", "NUMBER": 0.09}
{"VARIANT NAME": "G30U G48U", "REPORTED ENDPOINT": "self-cleavage", "NUMBER": 0.02}
{"VARIANT NAME": "C11A", "REPORTED ENDPOINT": "self-cleavage", "NUMBER": 0.84}
{"VARIANT NAME": "A28G U12A", "REPORTED ENDPOINT": "self-cleavage", "NUMBER": 0.12}
{"VARIANT NAME": "A36G A8U", "REPORTED ENDPOINT": "self-cleavage", "NUMBER": 0.53}
{"VARIANT NAME": "A17C C21U", "REPORTED ENDPOINT": "self-cleavage", "NUMBER": 0.69}
{"VARIANT NAME": "A17U G23U", "REPORTED ENDPOINT": "self-cleavage", "NUMBER": 0.13}
{"VARIANT NAME": "C33U G53U", "REPORTED ENDPOINT": "self-cleavage", "NUMBER": 0.13}
{"VARIANT NAME": "G42U G44C", "REPORTED ENDPOINT": "self-cleavage", "NUMBER": 0.26}
{"VARIANT NAME": "G49U U43C", "REPORTED ENDPOINT": "self-cleavage", "NUMBER": 0.04}
{"VARIANT NAME": "C11A G22C", "REPORTED ENDPOINT": "self-cleavage", "NUMBER": 0.04}
{"VARIANT NAME": "C9U U18G", "REPORTED ENDPOINT": "self-cleavage", "NUMBER": 0.57}
{"VARIANT NAME": "A41U G30C", "REPORTED ENDPOINT": "self-cleavage", "NUMBER": 0.04}
{"VARIANT NAME": "G35C G42A", "REPORTED ENDPOINT": "self-cleavage", "NUMBER": 0.08}
{"VARIANT NAME": "A46C C9A", "REPORTED ENDPOINT": "self-cleavage", "NUMBER": 0.03}
{"VARIANT NAME": "G45C U24C", "REPORTED ENDPOINT": "self-cleavage", "NUMBER": 0.02}
{"VARIANT NAME": "G22A G48C", "REPORTED ENDPOINT": "self-cleavage", "NUMBER": 0.09}
